- Assay Summary: Pharmacokinetics in rat plasma, IV and oral
- Type: in vivo, male Sprague-Dawley rats
- Measurement Setup: male, Sprague-Dawley, plasma; rat, oral 5 mg/kg vs IV 1 mg/kg; F=(AUClast PO/5·AUClast IV)·100
Measured Parameter: bioavailability (%)
Your answer should be a plain number; it is taken to be in %.

Q. Recorded bioavailability of C[C@H]1CO[C@@H]2Cn3cc(C(=O)NCc4ccc(F)cc4F)c(=O)c(O)c3C(=O)N12 [CAB, Cabotegravir, reference compound] , please.
A. 8.8

====

Please respond with reported solubility at 24 h for every item in the list.
- Assay Summary: Thermodynamic (shake-flask) solubility
- Format: physicochemical
- Measurement Setup: thermodynamic from solid; deionized water, 24 h; read-out: Solubility, water, value
The answer is to be given in µg/mL; state only the numeric part.

Q. I would be grateful if you could share the reported solubility at 24 h for Cc1cc(CNC(=O)c2cn3c(c(O)c2=O)C(=O)N2[C@@H](C)CO[C@@H]2C3)c2ccccc2n1 [Compound 1.1.51] .
A. 31

Q. Now the same for C[C@H]1CO[C@@H]2Cn3cc(C(=O)NCc4nn(C)c(Cl)c4Cl)c(=O)c(O)c3C(=O)N12 [Compound 1.1.7]
A. 318

Q. Also C[C@H]1CO[C@@H]2Cn3cc(C(=O)NCc4cccs4)c(=O)c(O)c3C(=O)N12 [Compound 1.1.1] , if possible.
A. 33
